Tested on: OVCAR-3
protocolDetails: Growth inhibition of human OVCAR-3 cells after 48 hrs by sulforhodamine B assay
Format: functional
conditionSummary: OVCAR-3, 48 h
measuredProperty: GI50 (µM)
One number for each entry, in µM.

For record COc1ccc(/C=N/c2nc3[nH]nc(C)n3c(=O)c2S(=O)(=O)NN2C(=O)C(CN3CCN(C)CC3)SC2c2cccs2)cc1 (centres undefined) the listed GI50 is 0.88

// recorded GI50 for COc1ccc(/C=N/c2nc3[nH]nc(C)n3c(=O)c2S(=O)(=O)NN2C(=O)C(CN3CCOCC3)SC2c2cccs2)cc1 (centres undefined) : 3.6

Recorded result, COc1ccc(/C=N/c2nc3[nH]nc(C)n3c(=O)c2S(=O)(=O)NN2C(=O)C(CN3CCOCC3)SC2c2ccc(OC)cc2)cc1 (centres undefined) , GI50: 22.5

In the following, a different molecule is considered.
# GI50 (molecule: COc1ccc(/C=N/c2nc3[nH]nc(C)n3c(=O)c2S(=O)(=O)NN2C(=O)C(CN3CCN(C)CC3)SC2c2ccc(OC)cc2)cc1 (centres undefined) ) is 21.5

Origin of values: ChEMBL document CHEMBL1153046
